methodDescription: Intrinsic clearance in mouse cryopreserved hepatocytes
Assay type: in vitro ADME
conditionLabel: 0.3 μM substrate, 37° C.
assayMetric: hepatocyte CLint at 0.3 μM

[2H]C([2H])([2H])c1c(Oc2c(F)cc(C#N)cc2F)nc(N)nc1C(F)(F)F = < 1.8 µL/min/1e6 cells

Looking up Cc1c(Oc2c(F)cc(C#N)cc2F)nc(N)nc1C(F)(F)F [Compound A, reference compound] , I found its hepatocyte CLint at 0.3 μM recorded as < 1.8 µL/min/1e6 cells

====

methodDescription: In vivo determination of Kp,uu,brain in mice
conditionLabel: male, CD1 (ICR); mouse, 100 mg/kg oral, 2 h; unbound brain-to-plasma partition coefficient
assayMetric: Kp uu at 2 h
Reply: number alone, nothing else.

Notebook: [2H]C([2H])([2H])c1c(Oc2c(F)cc(C#N)cc2F)nc(N)nc1C(F)(F)F [Example 1] , Kp uu at 2 h read as 0.586
